# Measured On: T1, human FGFR2b (Kaixia Biotechnology, catalog number FGR-HM1BB) (human, UniProt P21802-3 22-378)
# T1 construct: extracellular domain; bought; also called hFGFR2b; human FGFR2b protein
# Assay Procedure: BLI, antibody on AHC2 sensor
Parameter Measured: koff (s⁻¹)
Output spec: scalar in s⁻¹, unitless text.

Study these solved cases before continuing.
{"columns": ["Binder", "Parameter Measured", "Result Unit", "Test Value"],
 "data": [
  ["FR21 (antibody, human IgG1, kappa, V domains shown, also called positive control antibody FR21; positive monoclonal antibody FR21) VH: QVQLVQSGAEVKKPGSSVKVSCKASGYIFTTYNVHWVRQAPGQGLEWIGSIYPDNGDTSYNQNFKGRATITADKSTSTAYMELSSLRSEDTAVYYCARGDFAYWGQGTLVTVSS VL: DIQMTQSPSSLSASVGDRVTITCKASQGVSNDVAWYQQKPGKAPKLLIYSASYRYTGVPSRFSGSGSGTDFTFTISSLQPEDIATYYCQQHSTTPYTFGQGTKLEIKR", "koff", "s⁻¹", 0.000424],
  ["3H9-VH0-VL1 (antibody, human IgG1, kappa, V domains shown, humanized IgG1) VH: QVQLVQSGAEVKKPGASVKVSCKASGYTFTFYNMHWVRQAPGQGLEWMGLIYPDNGDTSYNQKFKGRATLTADTSTSTVYMELSSLRSEDTAVYYCARGGLDYWGQGTTVTVSS VL: DIQMTQSPSSLSASVGDRVTITCRASENIYSNLAWYQQKPGKSPKLLIYAATNLADGVPSRFSGSGSGTDYTLTISSLQPEDFATYYCQHFWGTPYTFGGGTKVEIKR", "koff", "s⁻¹", 0.00179]
]}

Let us move to another entry and its koff.
For the binder shown here, 3C7-VH3-VL0 (antibody, human IgG1, kappa, V domains shown, humanized IgG1) VH: QVQLVQSGAEVKKPGASVKVSCKASGYIFRNYYIHWVKQAPGQGLEWMGAIYPDNGDTSYNQRFKVRATLTADTSTSTVYMELSSLRSEDTAVYYCARAFTYWGQGTTVTVSS VL: DIQMTQSPSSLSASVGDRVTITCRASENIYGALNWYQQKPGKAPKLLIYGATNLADGVPSRFSGSGSGTDFTLTISSLQPEDFATYYCQNVLSTPYTFGGGTKVEIKR , give the reported koff.
0.000831
